System: MS2 coat protein
Test Summary: apparent KD of MS2 coat protein, switch OFF state (with FMN for OFF switches, without FMN for ON switches); designed switch direction (-1 OFF switch, 1 ON switch): -1; higher = weaker reporter binding
Test Parameters: FMN input: 0 or 200 uM; Eterna round: R93 (includes R88 designs)
Measured Quantity: apparent KD of MS2 coat protein
Value and unit, in that order.

AACAUGUCAGGAUAUGUAGCAUGAUACGAAAGUAUCAUGCUACAGAAGGGACAUGAGGAUCACCCAUGUGAUCA [Ex4: 940] ... 22 nM

Please turn your attention to the following entry.
Specify reported apparent KD of MS2 coat protein for the sequence shown: AAGAACGGAGGAUAUACAAAAUAAAAGAAAAGAAAGAAAGAACAUGAGGAUCACCCAUGUAGAAGGCCGAAGAA [Sehetepibre Sewesekhtawy]
29 nM

###

apparent KD of MS2 coat protein by entry:
System: MS2 coat protein
Test Summary: apparent KD of MS2 coat protein; designed switch direction (-1 OFF switch, 1 ON switch): -1; higher = weaker reporter binding
Test Parameters: input ligand: none
Only the number, expressed in nM, is required.

UGCAAGCUUUUGAGAUCCUACAUGAGGAUCACCCAUGUGCUCGUCUUAUAACGUACUGUGACGAAAGUCACGGUACG [JL TOV1 3.97] (Eterna round: R97, puzzle: Sensor, turn-off variant 1) ... 222
UGUAACCGAGGAUAUACAUGAGGAUCACCCAUGUAAUGUAGUAUAGUGUAUGUAAGGUGUAGAAGGUGGGAUGU (Eterna round: R97, puzzle: Exclusion 3) ... 74.7

Return reported apparent KD of MS2 coat protein for target or system MS2 coat protein, item AUAUAGAUAGUCAGGAUAUGCUAGUGAUAACAGUAGUAGAAGGGACAUGAGGAUCACCCAUGUAGAUAGUGCAC [Brourd's EX4 #4] (Eterna round: R97, puzzle: Brourd's mod of Exclusion 4) .
22.5

Return reported apparent KD of MS2 coat protein for target or system MS2 coat protein, item AAUAACAAGCCGAUCCUAAACAUGAGGAUCACCCAUGUGCUCGUCUUGUAAAGUACUAUCACGAAAGUGAUAGUACA (Eterna round: R96, puzzle: Sensor v3, turn-off variant 1) .
19.3

Return reported apparent KD of MS2 coat protein for target or system MS2 coat protein, item ACUUGUGUUGAGGAUAUGCGCCGGCUCGCUGGCGCAGAAGGCGGCACAUGAGGAUCACCCAUGUCAGUUCGCGU [salish99_ex6_r004_002] (Eterna round: R97, puzzle: Exclusion 6) .
26.4

###

System: MS2 coat protein
Test Summary: apparent KD of MS2 coat protein; higher = weaker reporter binding
Test Parameters: Eterna round: R107; input ligand: tryptophan 2.4 mM
Quick rule: apparent KD of MS2 coat protein of at least 30 nM means rule met, below that means rule not met.

Example entries begin here.
AAUAAUAAGGCGGCCGCCACUAAACAUGAGGAUCACCCAUGUCUCGCGGGCUUGCGUUGGGAAAGUAGGACCGGGCCAAUAAUAA [Exclusion - Tryptophan B (Freestyle 8)] ... rule not met
GCCUAGCAGCGAAGGAGCGAGGUAAAUAAAUAAAUAAAUAACAAGAGGAUCACCCUUGUUCCUCAGGUAGGUCGCGCUGCUAGGC [SSAB Alternative Aptamer #1 NP+V+V2] ... rule not met
GGCACUCUGUAAGAUACCAGACGUCGGUGCUUACAUGAGGAUCACCCAUGUUGCUUUUUAGUCCCUUGGCAGCUUCGGAUAACCA [Oniste] ... rule met
UAAUAUCACAUAUUAUGGGUGUAAUGUGAUACCAGCUAGGAAACUAGCCCUUGGCAGCACAUGAGGAUCACCCAUGUAAGCUGUA [(T1)'-(M)'-(T1)-(T2)-(M1)-(M2)-(T2)'_Design4_2/19/17] ... rule met
UAAAAUAAUAAUGAUACCAGCCCUCCCUCCCGGGACAUGAGGAUCACCCAUGUCUCUCCCGGCCCUUGGCAGCAUAAAUAAUAAU [Same Stare - Theophylline B] ... rule not met
UAUUUGGUGCGCGAGUGUUGGAUAAUUGAUACCAGUGAAGAAGAGCGCCCUUGGCAGCGAAUCCUAACAUGAGGAUCACCCAUGU [5.T] ... rule met

Is apparent KD of MS2 coat protein at least 30 nM? Consider UGUAUGUGAUUUGAUACCAGACCAGCUGGUGGUACUUGAGGAACACCCAAGUAGGUUUGGGUCCCUUGGCAGCAAAUCGCAUACU [SS Theo B #24 Ms11]
rule met

Is apparent KD of MS2 coat protein at least 30 nM? Consider GAUAGUUGAAGGGAUACCAGCCUGGACAUGAGGAUCACCCAUGUAGCGUGUUUGAAACUGGGCCCUUGGCAGCCCAUAUUGUGUA [Same State - Theophylline B / A]
rule not met

Is apparent KD of MS2 coat protein at least 30 nM? Consider UCGAUGGUACCCGAUACCAGCAAUACAUCACAGACCUGAUACAUGAGGAUCACCCAUGUGUGCCCUUGGCAGCGGGUCCUGAAAA [theeternabot_exclusion_MS2_Theo_B_25]
rule not met

Is apparent KD of MS2 coat protein at least 30 nM? Consider UGGUACAUGGCGGCCGCCACUUCACGUAAAAUAAAAACUUGAGGAACACCCAAGUAAUAAGUUGGGAGGACCGGGUCAUGUACCU
rule not met

Is apparent KD of MS2 coat protein at least 30 nM? Consider UGUAUGUGAUUUGAUACCAGACCAGCUGGUGUUACAAGAGGAUCACCCUUGUAGGUUUGGGUCCCUUGGCAGCAAAUCGCAUACU [SS Theo B #24 Ms4]
rule met

Is apparent KD of MS2 coat protein at least 30 nM? Consider AAUAAUAAGGCGGCCGCCACUACACAUGAGGAUCACCCAUGUCUCGCGGGCUUGCGUUGGGAAAGUAGGACCGGGCCAAUAAUAA [Exclusion - Tryptophan B (Freestyle 9)]
rule not met

Is apparent KD of MS2 coat protein at least 30 nM? Consider GGGUGUGAUCCGGAUACCAGCGAACAUGAGGAUCACCCAUGUGACCUGAGAUCGGCUCUACGCCCUUGGCAGCCGCGGUCGCAGG [Same State Theophylline B GF13]
rule not met

Is apparent KD of MS2 coat protein at least 30 nM? Consider GAUGAACAUACUGAUACCAGUGUACUGACAUGAGGAUCACCCAUGUUGGGUUUUGUUGUACACCCUUGGCAGCAGAAUGUUUAUC [AstrosExyTheB#7]
rule met

Is apparent KD of MS2 coat protein at least 30 nM? Consider AAAAGAGGUGGAAGGAGCGGGAGACAUGAGGAUCACCCAUGUGAAGUAACGAAAGGUACAGCCCAGGUAGGUCGCCAUGUCGAAA [qxqamullin]
rule met

###

Tested on: K4 kissing-loop RNA reporter
Test Summary: apparent KD of K4 kissing-loop reporter; higher = weaker reporter binding
Test Parameters: Eterna round: R107; input ligand: none
Measured Quantity: apparent KD of K4 kissing-loop reporter (nM)
Only the number, expressed in nM, is required.

Before answering, review these 3 worked examples.
GCCGUACGCAUGGAUACCAGCUACUAGAGUGAUGUUCUAUGGCCCUGCCAAUGGAGCUGUAGCCCUUGGCAGCCAUGCGUACGGC ... 105
CUUGAUGGAAACAUCGAGUAUUUCACUGAUACCAGUAUCGAUAGAUACCCUUGGCAGCAGGAUCAGUGUUUACGAGUGAUGUUCG [Ex Theophylline A K4 9] ... 451
AAGCUACGCGCGGCCGCCACUGUUUAUGUAUAAAUGCGUCGCUCACUGCUUUAGUGAUGUUGAAGCAGGACCGGGCGAAUGGUAC [theeternabot_exclusion_KL_Trp_B_15] ... 79.6

Specify reported apparent KD of K4 kissing-loop reporter for the sequence shown: GGCACUUUUGCUUGGAACCGUCAAGCUCUAUAGGAUAUGCCGAAAGGCAGAAGGAUGGACCUACAGAGUGAUGUUCUGCGUGCCU
583

Specify reported apparent KD of K4 kissing-loop reporter for the sequence shown: UUACGAGUGAUGUUCGAAUAAAUCCAUUCAGAGGAUAUAGUAUUAACUAGAAGGCUGAAACCAACUUCGAGUGAUGUUCGAGGAU [Same State FMN A GF 3]
108

Specify reported apparent KD of K4 kissing-loop reporter for the sequence shown: GCAUCCAUGGCAGGAUAUAGGUUCAUGGAGUGAUGUUCCAUAACCCGAGUGAUGUUCGUUAUCCACCUAGAAGGGCCAUGGAUGC
206

###

Test system: K4 kissing-loop RNA reporter;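 note: bound reporter read as fluorescence of individual clusters on recovered sequencing chips by microscopy, with normalized cluster intensities fitted with a binding model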
Test Summary: apparent KD of K4 kissing-loop reporter; higher = weaker reporter binding
Test Parameters: Eterna round: R107; input ligand: none
Measured Quantity: apparent KD of K4 kissing-loop reporter (nM)
Only the number, expressed in nM, is required.

Before answering, review these 3 worked examples.
AUUCUAUUGUGAAGGAGCGCGACUAGUAGUGAUGUUACUAUAUGACUUUAGUCUUAAUUCUCGCAGGUAGGUCGCACAAUAUAUA [JR_Nu_SSArginiB_Sub028] ... 796
CGAGUGAUGUUCGAAGAGUUGUUAAGCGAUACCAGCUAGGAGACUGGCCCUUGGCAGCGUAAUAAGUUAAUAAAUAAAUGAUCAC [whbob_Ex_Theo_A_th65] ... 360
GCAAGAGAGUGAUGUUGUUUUGAUCAGGGCAAGGAUAUGCUAUAUAGCAGAAGGUGCCGUUUUCUGCUGGCUUUCGUUACCCAUU [theeternabot_exclusion_KL_FMN_A_6] ... 865

Specify reported apparent KD of K4 kissing-loop reporter for the sequence shown: CGGAGUGAUGUUCCGUUAAUUCCUUAGUUACGAGGACCGGUACGGCCGCCACUCGAUUUUAGUUUUAUUUAUUGUUUGGAAAUUU [JR_SSTryptoA_Sub008]
290

Specify reported apparent KD of K4 kissing-loop reporter for the sequence shown: GAGAUAGCGACGGCCGCCACUAGUGAUGUUAGUGCUGGUAGAUAGAUACUGGAACAGAAAUGACGUAGGACCGGGUCAGAUAGAG [#01 K4 Tryptophan B Exclusion]
292

Specify reported apparent KD of K4 kissing-loop reporter for the sequence shown: GGUAGCAUGGCGGCCGCCACUAAGAGAGUGAUGUUCUCUUAGUUUUUUGAUGUGUUAUCAAUUCUUAGGACCGGGCCAUGCUACC
98.2

src = the supplement of paper PMC9170038
